Assay: Oral bioavailability in rat at 15 mg/kg, po
Assay type: ADME, organism-based
Details: in vivo
reported.property: bioavailability (%)
Report the value in % with no unit label.

Solved entries (count: 2):
compound	bioavailability / %
Cc1c(CN(C)C[C@@H](O)c2ncccn2)sc2c(=O)c(C(=O)NCc3ccc(F)cc3)cn(C)c12	29
CN(CC1=CC2C(=O)C(C(=O)NCc3ccc(Cl)cc3)=CN(C)C2S1)C[C@@H](O)c1ccccn1 (stereo partly drawn)	45

# next compound below
Which bioavailability value is on record for `Cc1c(CN(C)C[C@@H](O)c2ccccn2)sc2c(=O)c(C(=O)NCc3ccc(Cl)cc3)cn(C)c12` ? 30
